target: Torsin-1A (Homo sapiens) (UniProt O14656); experiment: small-molecule binders of mutant TOR1A in lysate, primary screen, cell lysate, small-molecule microarray, COS7 lysate, 635/667 nm fluorescence (AID 1150); conditions: COS7 hTOR1A mutant lysate, 635 nm fluorescence, higher = more signal;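 note: score pools 667 nm emission and signal to noise measuring lysate protein binding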
Sequence (O14656 whole entry, looked up): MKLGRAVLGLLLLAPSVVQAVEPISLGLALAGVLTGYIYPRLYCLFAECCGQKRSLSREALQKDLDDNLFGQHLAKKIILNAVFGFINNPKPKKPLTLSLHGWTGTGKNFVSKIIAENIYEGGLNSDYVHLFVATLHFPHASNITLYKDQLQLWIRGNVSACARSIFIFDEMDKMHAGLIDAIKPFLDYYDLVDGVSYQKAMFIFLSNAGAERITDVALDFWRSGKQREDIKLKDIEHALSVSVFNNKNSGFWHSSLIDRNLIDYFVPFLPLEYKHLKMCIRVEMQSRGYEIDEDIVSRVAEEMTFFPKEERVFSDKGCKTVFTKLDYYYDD
Returns one of condition met or condition not met; condition met when composite z-score is >= 0.6.

O=C1NC(=O)C2C1C=CC(C(O)c1c(F)cccc1Cl)N2Nc1ccccn1 (stereo not given); condition not met
O=C1O[C@@H](c2ccccc2)[C@@H](c2ccccc2)N2[C@@H](c3ccccc3OCCO)[C@]3(C(=O)Nc4ccc(C#CC5=CCCCC5)cc43)[C@@H](C(=O)NC[C@H](O)c3ccccc3)[C@H]12; condition not met
Cc1ccc(S[C@]2(C(=O)NC(C)C)CC(=O)N(Cc3ccccc3C(F)(F)F)[C@@H]2c2ccc(CO)cc2I)cc1; condition not met

Kindly determine if composite z-score recorded for `C=CC[C@]1(C(=O)N(C)C)N=C(c2ccc(OCCCO)cc2)O[C@H]1c1ccccc1N=[N+]=[N-]` is above or exactly 0.6.
condition met

Assess whether reported composite z-score for O=C1NC(=O)C2C1C=CC(C(O)c1ccc(Br)cc1)N2Nc1ccccn1 (stereo not given) sits at 0.6 or higher.
condition not met

API: above_or_equal(metric=composite z-score, cutoff=0.6) for item CN1C(=O)C2C=CC(C(O)C3CCCCC3)N(N3CCCCC3)C2C1=O (stereo not given)
condition not met

Could you tell me if the measured composite z-score of `O=C1O[C@@H](c2ccccc2)[C@@H](c2ccccc2)N2[C@@H](c3ccccc3OCCO)[C@]3(C(=O)Nc4ccc(C#CCCO)cc43)[C@@H](C(=O)N3CCN(c4ncccn4)CC3)[C@H]12` reaches 0.6 or more?
condition not met

Could you please find out whether `CCOC(=O)C1=CC[C@@H](c2cc(Cl)ccc2Cl)N(S(=O)(=O)c2ccc(C)cc2)[C@H]1c1ccc(OC)cc1` has composite z-score that meets 0.6 or exceeds it?
condition not met

In plain terms: is recorded composite z-score at least 0.6 for `CCOC(=O)C1=CC[C@@H](c2ccccc2)N(S(=O)(=O)c2ccc(C)cc2)C1` ?
condition not met

====

molecular target: Calmodulin-1 (Homo sapiens) (UniProt P0DP23); test: CALM1 binders on microarrays, EGTA buffer, profiling panel, biochemical, small-molecule microarray, Cy5-labelled CALM1 (AID 1111); details: Cy5-CALM1 binding fluorescence, higher = more signal;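 note: labelled calmodulin applied in Tris saline Tween buffer holding calcium plus EGTA and DTT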
A collection of compounds and their measured composite z-score
# output: bare number, no unit

COC(=O)[C@@]1(Cc2ccc(F)cc2)[C@H]2c3cc(C(=O)N4CCCC4)n(CCc4c[nH]c5ccc(OC)cc45)c3C[C@H]2CN1C(=O)c1ccccc1; 1.92
Cc1ccc(S[C@]2(C(=O)NCC(F)(F)F)CC(=O)N(Cc3ccccc3)[C@@H]2c2ccc(CO)cc2)cc1; -0.23
CN1C2C=C(CCCO)C(C3C(=O)N(C(N)=O)C(=O)C32)C1c1cccs1 (centres undefined); -0.555
COC(=O)[C@@]1(Cc2ccccc2)[C@H]2c3cc(C(=O)N4CCCC4)n(Cc4cc(F)cc5c4OCOC5)c3C[C@H]2CN1C(=O)c1ccccc1; 1.08
COc1ccc(NN2C(C(O)c3ccccn3)C=CC3C(=O)N(C4CCCCC4)C(=O)C32)cc1 (centres undefined); 1.58
CC(C)CN1C(=O)[C@@]2(Cc3ccccc31)c1ccccc1C(=O)N(Cc1ccccc1C(F)(F)F)[C@H]2c1ccc(CO)cc1; -0.566
O=C1O[C@@H](c2ccccc2)[C@@H](c2ccccc2)N2[C@@H](c3ccc(O)cc3)[C@]3(C(=O)Nc4ccc(C#CCCO)cc43)[C@@H](C(=O)NC[C@H](O)c3ccccc3)[C@H]12; -0.282
CN(C)CCCCNC(=O)[C@H]1C[C@H]2C(=O)N3CCC[C@H]3C(=O)N2[C@H]1c1ccc(O)cc1; -0.969
COCCOC(=O)N1C(=O)[C@@]2(c3ccccc31)[C@H](C(=O)N1CCN(c3ncccn3)CC1)[C@H]1C(=O)O[C@H](c3ccccc3)[C@H](c3ccccc3)N1[C@@H]2c1ccc(OCCO)cc1; 0.89
C=C(CCCC)/C(=C/C[C@@H](OC(=O)c1ccncc1)c1cccc(OCCO)c1)c1cnc2ccccc2c1; 0.185

Need composite z-score, item `O=C(O)[C@H]1C[C@H]2C(=O)N3CCC[C@H]3C(=O)N2[C@H]1c1cccc(OCCO)c1`
0.0384

Return reported composite z-score; argument: `CC(C)CN1C(=O)[C@@]2(c3ccc([N+](=O)[O-])cc3)CC(=O)N(CC34CC5CC(CC(C5)C3)C4)[C@@H]2c2ccc(CO)cc21`
0.657

Recorded composite z-score for `O=C1C[C@]2(c3ccc([N+](=O)[O-])cc3)C(=O)N(Cc3ccccc3)c3cc(CO)ccc3[C@H]2N1CC12CC3CC(CC(C3)C1)C2` , please?
-0.393

State the recorded composite z-score for this entry: COc1cc2c(cc1O)C(C)N(Cc1cc3c(cc1Br)OCO3)CC2 (centres undefined)
0.0966

What measured composite z-score goes with `COc1ccc(C#Cc2ccc3c(c2)[C@]2(C(=O)N3)[C@H](C(=O)N3CCc4cc(OC)c(OC)cc4C3)[C@H]3C(=O)O[C@H](c4ccccc4)[C@H](c4ccccc4)N3[C@@H]2c2ccc(O)cc2)cc1` ?
1.22

Need composite z-score of `C=C(COC)/C(=C/C[C@@H](OC(=O)c1ccncc1)c1ccc(OCCO)cc1)c1cnc2ccccc2c1` , thanks.
0.695

Param item = `CCOC(=O)C1=CC[C@@H](c2ccc([N+](=O)[O-])cc2)N(S(=O)(=O)c2ccc(C)cc2)[C@H]1c1ccccc1` ; retrieve measured composite z-score.
0.455

Requested field: composite z-score. Item: `O=C1O[C@H](c2ccccc2)[C@H](c2ccccc2)N2[C@H]1[C@@H](C(=O)O)[C@]1(C(=O)Nc3ccccc31)[C@H]2c1ccc(O)cc1`
-0.2

Fill in: composite z-score of `COc1ccccc1CN1C(=O)c2ccccc2[C@@H](C(=O)NC(C)C)[C@@H]1c1ccc(CO)cc1` is ___
0.301

Param item = `C[C@]1(C(=O)NC2CC2)c2ccccc2C(=O)N(Cc2ccc(OC(F)(F)F)cc2)[C@H]1c1ccc(CO)cc1` ; retrieve measured composite z-score.
-0.42

Suppose we examine the compound COc1ccc(C(O)C2C=CC3C(=O)N(c4ccccc4)C(=O)C3N2Nc2ccc(C#N)cc2)c2ccccc12 (centres undefined) ; what composite z-score value has been reported?
2.63

Which composite z-score is reported for this compound? CC(C)N1CC=CC23O[C@@H]4C=CCOC(=O)[C@@H]4[C@H]2C(=O)N(C(C)CO)[C@@H]3C1=O (some centres undefined)
-0.0212

Entry under review: `CC(C)(C)OC(=O)CC[C@]1(C(=O)NCCN2CCOCC2)N=C(c2ccc(OCCCO)cc2)O[C@H]1c1ccccc1N=[N+]=[N-]` . Reported composite z-score?
1.3

Using the record for `C=C[C@H](COC(C)=O)NS(=O)(=O)c1ccc(Br)cc1` , report its composite z-score.
-0.173

I have this compound here, `Cc1c(NC(=O)/C(C#N)=C/C=C/c2ccccc2[N+](=O)[O-])c(=O)n(-c2ccccc2)n1C` , and I need its recorded composite z-score.
0.517

# query: composite z-score of entry `C[C@@H]1ON(c2ccc(C(=O)OC(C)(C)C)cc2)[C@H](c2ccc(Br)cc2)[C@H]1C(=O)N1C(=O)OC[C@H]1Cc1ccccc1`
0.79

Item `C=C(/C(=C/C[C@@H](OC(=O)c1ccncc1)c1ccccc1OCCO)c1cc(C(=O)OC)ccc1OC)C(C)C` has what recorded composite z-score?
0.455

Need composite z-score, item `CN(C)CCCN1C(=O)[C@@]2(c3ccc([N+](=O)[O-])cc3)CC(=O)N(CC34CC5CC(CC(C5)C3)C4)[C@@H]2c2ccc(CO)cc21`
-0.301

Return reported composite z-score; argument: `COc1c(C)cc(-c2cc3c(c(Cc4ccccc4)n2)[Si](C(C)C)(C(C)C)OC3)cc1C`
0.0153
